# Tested on: MALME-3M melanoma
# method: NCI-60 one-dose screen, 48 h
# test parameters: 10 µM
Compounds without any hit were thinned out: in the full panel of roughly 83,000, 20% have a hit. Calls of active or inactive are those of the source. The calls were made as follows: active = growth percent below 10; inactive = the rest.
// one of TRUE = active, FALSE = inactive, no free text

### Prompt Which outcome was assigned to COc1ccc(Cc2nn(CC(=O)N/N=C/c3ccc([N+](=O)[O-])cc3)c(=O)c3c(C)noc23)cc1 in this test?
### Response FALSE

### Prompt Which outcome was assigned to O=C1NC(=S)S/C1=C\c1cn(-c2ccccc2)nc1-c1ccc([N+](=O)[O-])cc1 in this test?
### Response TRUE

### Prompt Which outcome was assigned to O=C(c1ccccc1)c1ccc2nc(-c3ccccc3Br)[nH]c2c1 in this test?
### Response TRUE

### Prompt Which outcome was assigned to O=C(c1ccc(Cl)cc1)C(c1c[nH]c2ccccc12)c1c[nH]c2ccccc12 in this test?
### Response TRUE

### Prompt Which outcome was assigned to C#C[C@]1(O)CC[C@H]2[C@@H]3CC=C4c5sc(Nc6cc(C)cc(C)n6)nc5CC[C@]4(C)[C@H]3CC[C@@]21C in this test?
### Response TRUE

### Prompt Which outcome was assigned to Cc1ccc(-c2nc(C#N)c(S(=O)(=O)N3CCN(S(C)(=O)=O)CC3)o2)cc1 in this test?
### Response TRUE

### Prompt Which outcome was assigned to Cn1cc(-c2nc(N)nnc2-c2c[nH]c3ccccc23)c2cc(Br)cnc21 in this test?
### Response FALSE

### Prompt Which outcome was assigned to Cc1ccc2c(c1)C(=O)/C(=C/c1c[nH]c3ccccc13)S2 in this test?
### Response FALSE

### Prompt Which outcome was assigned to O=C(CC(=O)Nc1ccc(Oc2ncnc3scc(Nc4n[nH]c(=S)s4)c23)cc1)Nc1ccc(Cl)cc1 in this test?
### Response FALSE
